Details: in isopentanol, 318.15 K
value_kind: solubility (mole fraction)

{"columns": ["sample_smiles", "value_kind", "measured_number"],
 "data": [
  ["CC1(C)O[C@@H]2[C@@H](CO[C@@]3(COS(N)(=O)=O)OC(C)(C)O[C@@H]23)O1", "solubility (mole fraction)", 0.0261]
]}

====

Conditions: in 2-propoxyethanol, 303.15 K
value_kind: solubility (mole fraction)

{"columns": ["sample_smiles", "value_kind", "measured_number"],
 "data": [
  ["CC1(C)O[C@@H]2[C@@H](CO[C@@]3(COS(N)(=O)=O)OC(C)(C)O[C@@H]23)O1", "solubility (mole fraction)", 0.121]
]}

Taken from BigSolDB 2.1.
